Ref: patent US10899759B2

List of log10(EC50) values.
- tested system: human mAChR M1 (Homo sapiens)
- Sequence (P11229 whole entry): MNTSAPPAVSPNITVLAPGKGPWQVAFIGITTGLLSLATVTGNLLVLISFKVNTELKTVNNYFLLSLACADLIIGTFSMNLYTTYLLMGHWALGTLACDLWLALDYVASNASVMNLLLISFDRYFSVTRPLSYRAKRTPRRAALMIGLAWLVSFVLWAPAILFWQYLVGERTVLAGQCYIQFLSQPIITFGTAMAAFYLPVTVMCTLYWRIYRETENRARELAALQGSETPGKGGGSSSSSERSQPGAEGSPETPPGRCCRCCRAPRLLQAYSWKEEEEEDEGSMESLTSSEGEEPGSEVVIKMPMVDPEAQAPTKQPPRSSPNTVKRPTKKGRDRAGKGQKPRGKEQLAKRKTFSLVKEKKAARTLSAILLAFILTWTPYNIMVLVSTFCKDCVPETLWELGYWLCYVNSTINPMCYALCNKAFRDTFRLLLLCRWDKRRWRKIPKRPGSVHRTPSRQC
- assay info: mAChR M1 cell-based functional assay (calcium mobilization, Fluo-4, FDSS)
- assay conditions: CHO-K1 cells stably expressing hM1; positive allosteric modulator activity as increase in the EC20 acetylcholine response
# values: log10(EC50), units nM

As a guide, the following entries are already answered.
>>> numeric_result("Cn1ccc2c(Cc3ccc(-c4cscn4)cc3)cc(C(=O)N[C@H]3CCOC[C@@H]3O)nc21")
1.30
>>> numeric_result("Cn1ccc(-c2ccc(Cc3cc(C(=O)N[C@H]4CC[C@@H]4O)nc4c3ccn4C)cn2)n1")
2.96
>>> numeric_result("CC1CC(NC(=O)c2cc(Cc3ccc(-c4ccn(C)n4)nc3)c3ccsc3n2)CC(C)O1 (stereo not shown)")
1.95

Kindly note the recorded log10(EC50) for `COCCNC(=O)c1cc(Cc2ccc(-c3coc(C)n3)cc2)c2ccsc2n1` , which is 2.45

Kindly note the recorded log10(EC50) for `Cc1nc(-c2ccc(Cc3cc(C(=O)NC4CC5(COC5)C4)nc4sccc34)cc2)co1` , which is 2.59

Kindly note the recorded log10(EC50) for Cc1nc(-c2ccc(Cc3cc(C(=O)NC4CCOCC4(C)C)nc4sccc34)cc2)co1 (stereo not shown) , which is 3.37
